# measured_target: HIV-1 protease (wild-type, WT) (Human immunodeficiency virus type 1 group M subtype B, UniProt P04585)
# Construct: purified HIV-1 protease (wild-type, WT)
# test_protocol: biochemical
Listing of recorded Ki by entry.
reported_endpoint: Ki (nM)

# compound, reported_endpoint, result_units, number
data = [
    ("Cc1c(O)cccc1C(=O)N[C@@H](Cc1ccccc1)[C@@H](O)[C@@H](O)[C@H](Cc1ccccc1)NC(=O)O[C@H]1CCOC1 [AN-78]", "Ki", "nM", 1.43),
    ("O=C(N[C@@H](Cc1ccccc1)[C@H](O)[C@H](O)[C@H](Cc1ccccc1)NC(=O)O[C@H]1CCOC1)O[C@H]1CCOC1 [RS-205]", "Ki", "nM", 4.6),
    ("Cc1c(O)cccc1C(=O)N[C@@H](Cc1ccccc1)[C@@H](O)C[C@H](Cc1ccccc1)NC(=O)c1ccccc1NC(=O)OCc1ccccn1 [LL-82]", "Ki", "nM", 0.06),
    ("Cc1c(O)cccc1C(=O)N[C@@H](Cc1ccccc1)[C@@H](O)C[C@H](Cc1ccccc1)NC(=O)c1cccc(N)c1 [AN-96]", "Ki", "nM", 0.75),
]

---

# measured_target: HIV-1 protease (wild-type, WT) (Human immunodeficiency virus type 1 group M subtype B)
# Construct: purified HIV-1 protease (wild-type, WT)
# test_protocol: biochemical
# condition_set: read-out: Ki
reported_endpoint: Ki (pM)

# line_notation, measured_target, number
records = [
    ("CC(C)(C)OC(=O)N[C@@H](Cc1ccccc1)[C@@H](O)[C@@H](O)[C@H](Cc1ccccc1)NC(=O)c1ccccc1NC(=O)OCc1ccccn1", "HIV-1 protease (wild-type, WT) (Human immunodeficiency virus type 1 group M subtype B)", 140),
    ("CC(C)(C)OC(=O)N[C@@H](Cc1ccccc1)[C@H](O)[C@H](O)[C@H](Cc1ccccc1)NC(=O)OC(C)(C)C", "HIV-1 protease (wild-type, WT) (Human immunodeficiency virus type 1 group M subtype B)", 8400),
    ("Cc1c(O)cccc1C(=O)N[C@@H](Cc1ccccc1)C[C@H](O)[C@H](Cc1ccccc1)NC(=O)c1cccc(O)c1C", "HIV-1 protease (wild-type, WT) (Human immunodeficiency virus type 1 group M subtype B)", 800),
]

---

# measured_target: HIV-1 protease (wild-type, WT) (Human immunodeficiency virus type 1 group M subtype B)
# Construct: purified HIV-1 protease (wild-type, WT)
# test_protocol: biochemical
# condition_set: Example 2; read-out: Ki
pKi: −log10 of the molar value.
reported_endpoint: pKi

# line_notation, number
measured = [
    ("CC(C)(C)OC(=O)N[C@@H](Cc1ccccc1)[C@@H](O)[C@@H](O)[C@H](Cc1ccccc1)NC(=O)c1ccccc1NC(=O)OCc1ccccn1", 9.40),
]

---

# measured_target: HIV-1 protease (wild-type, WT) (Human immunodeficiency virus type 1 group M subtype B)
# Construct: purified HIV-1 protease (wild-type, WT)
# test_protocol: biochemical
# condition_set: Table I; unit printed in the line; read-out: Ki
reported_endpoint: Ki (nM)

# line_notation, number
measured = [
    ("COc1ccc(S(=O)(=O)N[C@@H](Cc2ccccc2)C[C@H](O)[C@H](Cc2ccccc2)NC(=O)c2cccc(O)c2C)cc1", 1500),
]

---

# measured_target: HIV-1 protease (wild-type, WT) (Human immunodeficiency virus type 1 group M subtype B, UniProt P04585)
# Construct: purified HIV-1 protease (wild-type, WT)
# test_protocol: biochemical
# condition_set: Table III; read-out: Ki
pKi: −log10 of the molar value.

# line_notation, pKi
records = [
    ("O=C(Nc1ccccc1C(=O)N[C@@H](Cc1ccccc1)[C@H](O)[C@H](O)[C@H](Cc1ccccc1)NC(=O)c1cccc(O)c1)OCc1ccccn1", 9.12),
]
